System: HeLa
Assay: Cytotoxicity against human HeLa cells assessed as reduction in cell viability incubated for 24 hrs by LDH release assay
Assay type: toxicity, cell-based
pIC50: −log10 of the molar value.
metric: pIC50

q: Quick one: pIC50 of Oc1c(Br)c(Cl)c(Br)c2nc3c(Br)cccc3nc12 ?
a: 4.00

q: Need pIC50 of Cc1cccc2nc3c(O)c(Br)c(Cl)c(Br)c3nc12 , thanks.
a: < 4.00

q: What value of measured pIC50 is listed for Oc1c(Br)cc(Br)c2nc3ccccc3nc12 ?
a: < 4.00

q: Any idea what its pIC50 is? The compound is Oc1cc(Cl)cc2nc3c(Cl)cc(Cl)cc3nc12
a: < 4.00

q: Would you kindly share the measured pIC50 for Oc1c(Br)c(Cl)c(Br)c2nc3ccc(F)cc3nc12 ?
a: < 4.60

q: Form field: reported pIC50 of Oc1cc(Cl)cc2nc3ccc(I)cc3nc12
a: 4.00

q: Can you share its pIC50? I mean this compound: Oc1c(Br)c(Cl)c(Br)c2nc3c(Oc4ccccc4)cccc3nc12
a: < 4.00

q: If you can, please state the reported pIC50 value of Oc1c(Br)c(Cl)c(Br)c2nc3c(Cl)cc(Cl)cc3nc12 .
a: < 4.00

q: If you can, please state the reported pIC50 value of Cc1c(Br)ccc2nc3c(O)cc(Cl)cc3nc12 .
a: < 4.00

q: Could you tell me which pIC50 is on file for Oc1c(Br)c(Cl)c(Br)c2nc3ccccc3nc12 ?
a: < 4.00

---

Tested on: J774
Assay: Cytotoxicity against mouse J774 cells assessed as reduction in cell viability […] by Alamar blue assay
Assay type: toxicity, cell-based
pIC50: −log10 of the molar value.
metric: pIC50

q: Request the reported pIC50 associated with Cc1c(Br)ccc2nc3c(O)c(Br)c(Cl)c(Br)c3nc12
a: < 3.70

q: Name the recorded pIC50 for Cc1ccc2nc3c(O)c(Br)c(Cl)c(Br)c3nc2c1C .
a: < 3.70

q: Value lookup for pIC50; key = Oc1c(Br)c(Cl)c(Br)c2nc3c(Br)cccc3nc12
a: < 3.70

q: Endpoint output: pIC50 of CCSc1c(Br)c(O)c2nc3cccc(C)c3nc2c1Br . Value?
a: < 4.00

q: Please report the recorded pIC50 for Cc1c(Br)ccc2nc3c(O)cc(Cl)cc3nc12 .
a: < 3.70

q: Quick one: pIC50 of Oc1c(Br)cc(Br)c2nc3ccccc3nc12 ?
a: < 4.00

q: I would be grateful if you could share the reported pIC50 for Oc1cc(Cl)cc2nc3c(Cl)cc(Cl)cc3nc12 .
a: < 3.70

q: Suppose we examine the compound Oc1c(Br)c(Cl)c(Br)c2nc3c(Oc4ccccc4)cccc3nc12 ; what pIC50 value has been reported?
a: < 3.70

q: Could you share which pIC50 value was measured for Cc1cccc2nc3c(O)c(Br)c(Cl)c(Br)c3nc12 ?
a: < 3.70

q: Entry Oc1c(Br)c(Cl)c(Br)c2nc3ccc(F)cc3nc12 : reported pIC50 = ?
a: < 3.70

q: Using the record for Oc1c(Br)c(Cl)c(Br)c2nc3ccccc3nc12 , report its pIC50.
a: < 3.70

q: // returns reported pIC50 for input Oc1c(Br)c(Cl)c(Br)c2nc3c(Cl)cc(Cl)cc3nc12
a: < 3.70

---

Please respond with reported MIC for every item in the list.
System: Staphylococcus aureus
Test: Antibacterial activity against methicillin-resistant Staphylococcus aureus BAA-44 assessed as bacterial growth inhibition incubated for 16 hrs by broth microdilution susceptibility test
Type: functional
Number in µM, nothing else.

q: Recorded MIC for O=C(O)CN(CCN(CC(=O)O)CC(=O)O)CC(=O)O , please?
a: 125

q: May I ask what MIC has been recorded for Oc1cccc2nc3ccccc3nc12 ?
a: 50

q: Which MIC reading was recorded for the compound CCSc1c(Br)c(O)c2nc3cccc(C)c3nc2c1Br ?
a: 0.3

q: // query MIC value for entry Cc1c(Br)ccc2nc3c(O)cc(Cl)cc3nc12
a: 0.3

q: For Oc1cc(Cl)cc2nc3ccc(I)cc3nc12 , what is its reported MIC?
a: 1.56

---

System: Staphylococcus epidermidis
Experiment: Antibacterial activity against methicillin-resistant Staphylococcus epidermidis ATCC 35984 assessed as bacterial growth inhibition incubated for 16 hrs by broth microdilution susceptibility test
Assay type: functional
metric: MIC

q: # get_value(readout='MIC', item= Cc1ccc2nc3c(O)cc(Cl)cc3nc2c1C )
a: 2.35 µM

q: Look up MIC: Oc1cc(Cl)cc2nc3ccccc3nc12
a: 18.8 µM

q: Can you look up the measured MIC of Oc1c(Br)c(Cl)c(Br)c2nc3c(Cl)cc(Cl)cc3nc12 for me?
a: ≤ 0.05 µM

q: If you can, please state the reported MIC value of Cc1c(Br)ccc2nc3c(O)cc(Cl)cc3nc12 .
a: 0.78 µM

q: Quick one: MIC for COCCOCCOCCOCCSc1c(Br)c(O)c2nc3cccc(C)c3nc2c1Br ?
a: 2.35 µM

q: Any idea what MIC was measured for Cc1ccc2nc3c(O)c(Br)c(Cl)c(Br)c3nc2c1C ?
a: ≤ 0.05 µM

q: Sample Oc1c(Br)c(Cl)c(Br)c2nc3ccc(I)cc3nc12 — what was its MIC?
a: 0.3 µM

q: What value of MIC has been reported for the following molecule? Oc1c(Br)c(Cl)c(Br)c2nc3ccc(Br)cc3nc12
a: 0.1 µM

q: Could you tell me which MIC is on file for Oc1cccc2nc3ccccc3nc12 ?
a: 37.5 µM
